The following compounds were reported with IC50 values on Oxysterols receptor LXR-beta (Homo sapiens) in different studies.
endpoint_name: IC50 (µM)

- entry_smiles: "CS(=O)(=O)c1cc(Oc2ccc(Cl)c(-c3ncnc4c(C(F)(F)F)cccc34)c2)ccc1C(N)=O"
  target_or_test_system: "Oxysterols receptor LXR-beta (Homo sapiens)"
  readout_units: "µM"
  IC50: 0.288
- entry_smiles: "CS(=O)(=O)c1cccc(-c2ccc(CN(Cc3ccccc3)S(=O)(=O)c3ccccc3C(F)(F)F)s2)c1"
  target_or_test_system: "Oxysterols receptor LXR-beta (Homo sapiens)"
  readout_units: "µM"
  IC50: 0.165
- entry_smiles: "CCc1nc2c(C#N)cccn2c1-c1cccc(Oc2cccc(S(=O)(=O)CC)c2)c1"
  target_or_test_system: "Oxysterols receptor LXR-beta (Homo sapiens)"
  readout_units: "µM"
  IC50: 0.107
- entry_smiles: "NC(=O)CCCCS(=O)(=O)c1cccc(Oc2ccc(F)c(-c3ncnc4c(Cl)cccc34)c2)c1"
  target_or_test_system: "Oxysterols receptor LXR-beta (Homo sapiens)"
  readout_units: "µM"
  IC50: 0.324

I: COCCN(Cc1ccc(-c2cccc(S(C)(=O)=O)c2)s1)S(=O)(=O)c1ccccc1C(F)(F)F
II: N#CCCCCS(=O)(=O)c1cccc(Oc2ccc(F)c(-c3ncnc4c(C(F)(F)F)cccc34)c2)c1
III: CCc1cnc2c(C(F)(F)F)cccc2c1-c1cccc(OC(=O)c2cccc(S(C)(=O)=O)c2)c1
Prompt line: List items by IC50 in falling order. Order the labels as requested and give them as your answer.
Response line: I, II, III
(I: 0.116 µM, II: 0.052 µM, III: 0.0022 µM)
